These measurements were taken from the supplement of paper PMC10567573.

B1: EPB41L3 (parent)
chain: SELGDYDPDECGSDYISEFRFAPN

variants of: B1; test: protein stability index of a GFP-peptide fusion (GPS, HEK-293T) (PSI 1-6); higher = more stable; details: c terminus: a fixed tail appended;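 further: lentivirally expressed fusions sorted by FACS into six bins by GFP to DsRed ratio, PSI derived from sequencing read proportions per bin multiplied by bin number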
Assign 1 whenever protein stability index does not fall below 2; assign 0 whenever it does.

sequence.text	category.label
SELGDYDPDYCGSDYISEFRFAPN [E10Y]	0
SELGDYDPDECGSDYISFFRFAPN [E18F]	1
SELGDYDPDECGSDYIEEFRFAPN [S17E]	1
SELGDYDPEECGSDYISEFRFAPN [D9E]	1
SELGDYDGDECGSDYISEFRFAPN [P8G]	1

query: Can SELGDYDPDECGSDYISEFQFAPN [R20Q] be said to have protein stability index at or above 2?
result: 1

query: Would you say SELGDYDWDECGSDYISEFRFAPN [P8W] shows protein stability index at minimum 2?
result: 0

query: Can SELGDYDHDECGSDYISEFRFAPN [P8H] be said to have protein stability index at or above 2?
result: 1

query: # check: protein stability index of SELGDYDPDEFGSDYISEFRFAPN [C11F] is greater than or equal to 2
result: 0

query: Could you verify whether the entry SELGDYDPDECGSDYISEFCFAPN [R20C] shows protein stability index of no less than 2?
result: 1

query: I'd appreciate it if you could say whether SELGDYDPDECGSDYISEFRFAPV [N24V] has protein stability index at least equal to 2.
result: 1

query: Can SEKGDYDPDECGSDYISEFRFAPN [L3K] be said to have protein stability index at or above 2?
result: 0

query: Decide: protein stability index of SELGDYDPDECGSDYISEFRFAHN [P23H] >= 2?
result: 1

query: Assess whether reported protein stability index for SELGDYDPDECGQDYISEFRFAPN [S13Q] sits at 2 or higher.
result: 1

query: Assess whether reported protein stability index for SELGDYDPDECGSDYISEFRDAPN [F21D] sits at 2 or higher.
result: 1

query: Check this variant for protein stability index at or above 2: SELGDYDPDECGSDYISEFRFRPN [A22R]
result: 1

query: Textbook exercise: given the entry SELGDYDPDWCGSDYISEFRFAPN [E10W] , state whether its protein stability index is greater than or equal to 2.
result: 0

query: # bool: protein stability index of SELYDYDPDECGSDYISEFRFAPN [G4Y] >= 2
result: 1

query: Check the entry SELGDYDPDECWSDYISEFRFAPN [G12W] : does protein stability index equal or exceed 2?
result: 0
